Data provenance is patent EP0212479A1.

- ASSAY_EXPLANATION: Rat feeding trial (Ratten-Fütterungsversuch), growth promotion
- Assay type: in vivo, Laborratten vom Typ SPF Wistar
- CONDITIONS: female rats 90-110 g, active substance in feed ad lib, Dosis 25 ppm, 13-day trial, weight gain relative to Kontrolle = 100
Below is a list of entries, each paired with its recorded Zuwachs value.
PARAMETER: Zuwachs

{"MOLECULE": "FC(F)(F)c1cccc(CNC2=NCCCCC2)c1 [Beispiel 13]", "PARAMETER": "Zuwachs", "OBSERVED_RESULT": 112}
{"MOLECULE": "FC(F)(F)c1ccc(CNC2=NCCCCC2)cc1", "PARAMETER": "Zuwachs", "OBSERVED_RESULT": 107}
{"MOLECULE": "FC(F)(F)c1cccc(CNC2=NCCCCC2)c1 [14 (Maleinat)]", "PARAMETER": "Zuwachs", "OBSERVED_RESULT": 117}
{"MOLECULE": "CC(NC1=NCCCCC1)c1cccc(C(F)(F)F)c1 (stereo not drawn)", "PARAMETER": "Zuwachs", "OBSERVED_RESULT": 111}
{"MOLECULE": "CC(C)c1ccc(C(F)(F)F)cc1CNC1=NCCCCC1", "PARAMETER": "Zuwachs", "OBSERVED_RESULT": 104}
{"MOLECULE": "FC(F)(F)c1ccccc1CNC1=NCCCCC1", "PARAMETER": "Zuwachs", "OBSERVED_RESULT": 107}
